# Test system: L1210 leukemia ip in BDF1 mice, survival T/C
# MEASUREMENT DESCRIPTION: NCI In Vivo Anticancer Drug Screen. Data for tumor model L1210 Leukemia (intraperitoneal) in B6D2F1 (BDF1) mice
# PROTOCOL CONDITIONS: endpoint: mean survival time; dose: 50.0 mg/kg/injection; schedule: Q04DX002 (ip); vehicle: saline with Tween-80; higher = longer survival
Toxic doses and inconclusive results are not listed.
ASSAY READOUT: T/C

Study these solved cases before continuing.
Asked: Provide value of T/C for this record tested with L1210 leukemia ip in BDF1 mice, survival T/C: O/N=C/c1cccc(CC(O)(C(F)(F)F)C(F)(F)F)n1
Given back: 103 % of control

Asked: Another molecule: Cc1c([N+](=O)[O-])cc(C(C)(C)C)c(OS(C)(=O)=O)c1[N+](=O)[O-]
Given back: 99 % of control

Asked: Follow-up entry: CCCCN(CCCC)S(=O)(=O)CCC
Given back: 101 % of control

Asked: Try this molecule next: CN1CN2c3ccccc3CCC2C2CCCC21 (configuration not stated)
Given back: 104 % of control

Asked: Next molecule: CCN(/N=C/c1ccc([N+](=O)[O-])o1)C(N)=O
Given back: 103 % of control

Asked: Would you mind doing CCCc1ccccc1NC1=NCCO1 as well?
Given back: 98 % of control

# context switch: different molecule, same T/C
Asked: Please state recorded T/C (tested on L1210 leukemia ip in BDF1 mice, survival T/C) of CC(=O)O/N=C(/CCC(=O)O)c1ccccc1
Given back: 97 % of control

* * *

# System: L1210 leukemia ip in BDF1 mice, survival T/C
# MEASUREMENT DESCRIPTION: NCI In Vivo Anticancer Drug Screen. Data for tumor model L1210 Leukemia (intraperitoneal) in B6D2F1 (BDF1) mice
# PROTOCOL CONDITIONS: endpoint: mean survival time; dose: 200.0 mg/kg/injection; schedule: Q01DX001 (ip); vehicle: saline; higher = longer survival
Inconclusive results and toxic doses are left out.
The entries below are paired with their reported T/C.

Asked: I am curious: what T/C value has been reported for C[N+]([O-])(CCC#N)CC(=O)O (stereo not given) ?
Given back: 101 % of control

Asked: Would you mind doing COC1CCN(CCCn2c3ccccc3c3ccc(C(C)=O)cc32)CC1 as well?
Given back: 105 % of control

Asked: Next record, please: NCC(=O)c1ccc(Cl)cc1
Given back: 104 % of control

Asked: Please give the result for O=[N+]([O-])c1ccc(O)cc1 too.
Given back: 101 % of control

***
Asked: Item under review: COc1ccc(/C=N/O)cc1 . Reported T/C?
Given back: 100 % of control

Asked: Could you do the same for O=C(N/N=C/c1cc(Cl)ccc1[N+](=O)[O-])c1cccc2ccccc12 , please?
Given back: 101 % of control

Asked: Another compound: COc1ccccc1CN1CCCN(Cc2ccccc2OC)C1c1cc(Br)ccc1O
Given back: 103 % of control

Asked: Please do the same for NCC1OC(n2cnc3c(=O)[nH]c(N)nc32)C(O)C1O (stereo not given) as well.
Given back: 95 % of control

Asked: Similarly, COc1ccc(S(=O)(=O)N=[N+]=[N-])cc1 ?
Given back: 95 % of control

Asked: Another compound: C=C1C(=O)O[C@@H]2C[C@@]3(C)CCC[C@H](C)C3=C[C@H]12
Given back: 98 % of control

* * *

# System: L1210 leukemia ip in BDF1 mice, survival T/C
# MEASUREMENT DESCRIPTION: NCI In Vivo Anticancer Drug Screen. Data for tumor model L1210 Leukemia (intraperitoneal) in B6D2F1 (BDF1) mice
# PROTOCOL CONDITIONS: endpoint: mean survival time; dose: 150.0 mg/kg/injection; schedule: Q01DX001 (ip); vehicle: saline; higher = longer survival
Toxic doses and inconclusive results are not listed.
ASSAY READOUT: T/C

Asked: May I ask what T/C has been recorded for CCOC(=O)CCC(NC(=O)c1ccc(N(C)S(=O)(=O)c2ccc(C)cc2)c(F)c1)C(=O)OCC (stereo not given) ?
Given back: 98 % of control

Asked: Next molecule up: O=C(O)CCC(=O)CC[N+](=O)[O-]
Given back: 97 % of control

* * *

Parameter T/C: see the listing below.
# Tested on: L1210 leukemia ip in BDF1 mice, survival T/C
# MEASUREMENT DESCRIPTION: NCI In Vivo Anticancer Drug Screen. Data for tumor model L1210 Leukemia (intraperitoneal) in B6D2F1 (BDF1) mice
# PROTOCOL CONDITIONS: endpoint: mean survival time; dose: 200.0 mg/kg/injection; schedule: Q01DX009 (ip); vehicle: saline sonified; higher = longer survival
Toxic doses and inconclusive results are not listed.

Example entries begin here.
Asked: Which T/C reading was recorded for the compound C#CC(C)ON1C(=O)c2ccccc2C1=O (stereo not given) ?
Given back: 97 % of control

Asked: Lookup C=C(Cl)CSC(=S)N(CC)CC
Given back: 105 % of control

Asked: Now the same for CCCCOC(=O)c1ccc(OCCOc2ccc(C(C)(C)CC(C)(C)C)cc2)c(NC(=O)CC(=O)c2cccc(N)c2)c1
Given back: 91 % of control

Next:
Asked: Endpoint output: T/C of CCO/C(=C\C(=O)c1ccccc1)c1ccccc1 . Value?
Given back: 94 % of control

Asked: Thanks! And c1cc2ccc1CCc1ccc(cc1)CC2 ?
Given back: 99 % of control

* * *

# Test system: L1210 leukemia ip in BDF1 mice, survival T/C
# MEASUREMENT DESCRIPTION: NCI In Vivo Anticancer Drug Screen. Data for tumor model L1210 Leukemia (intraperitoneal) in B6D2F1 (BDF1) mice
# PROTOCOL CONDITIONS: endpoint: mean survival time; dose: 12.5 mg/kg/injection; schedule: Q04DX003 (ip); vehicle: Klucel (hydroxypropylcellulose) (HPC); higher = longer survival
Inconclusive results and toxic doses are left out.
ASSAY READOUT: T/C

Asked: # input compound: CCCCCCCCCCCCCCCCCc1cc(=O)n(-c2ccc(NC(=O)CCC(=O)OC)cc2)n1C ; wanted: its T/C
Given back: 93 % of control

Asked: Now give it for CC(=O)Nc1cc2ccccc2[n+](C)c1 too.
Given back: 94 % of control

Asked: Another compound: O=[N+]([O-])c1cc(Cl)cc(Br)c1O
Given back: 100 % of control

Asked: Let us now turn to N#CCN1C(=O)c2ccccc2C1=O
Given back: 100 % of control

* * *

# Test system: L1210 leukemia ip in BDF1 mice, survival T/C
# MEASUREMENT DESCRIPTION: NCI In Vivo Anticancer Drug Screen. Data for tumor model L1210 Leukemia (intraperitoneal) in B6D2F1 (BDF1) mice
# PROTOCOL CONDITIONS: endpoint: mean survival time; dose: 400.0 mg/kg/injection; schedule: Q01DX001 (ip); vehicle: other; higher = longer survival
Toxic doses and inconclusive results are not listed.
Measured T/C of individual entries

Would you please look over these solved cases?
Asked: Given CCOC(=O)c1nc[nH]c1N=[N+]=[N-] , state its recorded T/C.
Given back: 95 % of control

Asked: Moving on to C=CNC(=O)Oc1ccccc1
Given back: 91 % of control

Asked: Now consider O=C(O)C(CS)NS(=O)(=O)Cc1ccccc1 (centres undefined) and answer again.
Given back: 100 % of control

Consider now this further compound.
Asked: Look up T/C: COc1cc2c(cc1OC)C(=O)CC2
Given back: 96 % of control

* * *

# System: L1210 leukemia ip in BDF1 mice, survival T/C
# MEASUREMENT DESCRIPTION: NCI In Vivo Anticancer Drug Screen. Data for tumor model L1210 Leukemia (intraperitoneal) in B6D2F1 (BDF1) mice
# PROTOCOL CONDITIONS: endpoint: mean survival time; dose: 200.0 mg/kg/injection; schedule: Q01DX009 (ip); vehicle: Klucel (hydroxypropylcellulose) (HPC); higher = longer survival
Inconclusive results and toxic doses are left out.
ASSAY READOUT: T/C

Asked: What value of T/C has been recorded for this entry: Cn1cnc(N)c1C(N)=S
Given back: 98 % of control

Others:
Asked: Recorded T/C for CCCC(C)OP(=O)(OCC)OC(C)CC (stereo unspecified) , please?
Given back: 89 % of control

Asked: What would you report for CCOC(=O)C1=NN(c2ccccc2)C(=O)C1 ?
Given back: 103 % of control

Asked: Same for COc1cc(NS(C)(=O)=O)ccc1NS(C)(=O)=O
Given back: 108 % of control

Asked: Repeat with Cc1ccc(C)c(NC(=O)c2ccccc2Cl)c1
Given back: 120 % of control

Asked: Now this one: NC(=O)NCC(=O)O
Given back: 96 % of control

* * *

# Tested on: L1210 leukemia ip in BDF1 mice, survival T/C
# MEASUREMENT DESCRIPTION: NCI In Vivo Anticancer Drug Screen. Data for tumor model L1210 Leukemia (intraperitoneal) in B6D2F1 (BDF1) mice
# PROTOCOL CONDITIONS: endpoint: mean survival time; dose: 50.0 mg/kg/injection; schedule: Q04DX003 (ip); vehicle: saline; higher = longer survival
Inconclusive results and toxic doses are left out.
ASSAY READOUT: T/C

Asked: Checklist item: T/C tested on L1210 leukemia ip in BDF1 mice, survival T/C, entry CCCCCCCCN(N)C12CC3CC(CC(C3)C1)C2 , value?
Given back: 113 % of control

Asked: What would you report for Cc1c[n+]([O-])ccc1[N+](=O)[O-] ?
Given back: 97 % of control

Asked: Record: CC(CN1c2ccccc2Sc2cccnc21)N(C)C (centres undefined)
Given back: 102 % of control

Could you now look at the following compound, please?
Asked: Request - read-out T/C | tested on L1210 leukemia ip in BDF1 mice, survival T/C | compound C[PH+](c1ccccc1)c1ccccc1.C[PH+](c1ccccc1)c1ccccc1.O=C([S-])[S-].[Pd+2]
Given back: 100 % of control
